Tested on: RXF 393
experiment.summary: NCI tumour cell line growth inhibition, 48 h
Active and inactive are the calls of the source. Rule as the data show it: active = GI50 up to about 1.1 µM and inactive = higher.
Classes used: 1 (yes) = active, 0 (no) = inactive

smi: Cn1c(N(CCO)CCO)cnc1[N+](=O)[O-]
class.assignment: 0 (no)

smi: CN/C(=N\N)NS(=O)(=O)c1cc(C)c(Cl)cc1S
class.assignment: 0 (no)

smi: CN(C)[C@@H]1C(O)=C(C(=O)NCNc2nc3[nH]nnc3c(=O)[nH]2)C(=O)[C@@]2(O)C(O)=C3C(=O)c4c(O)cccc4[C@@](C)(O)[C@H]3C[C@@H]12
class.assignment: 1 (yes)

smi: O=C1/C(=C/c2ccc(O)c(CN3CCCCC3)c2)CCC/C1=C\c1ccc(O)c(CN2CCCCC2)c1
class.assignment: 0 (no)
